Values were extracted from patent US6716833B2.

- measurement-target: MMP-13 (Homo sapiens, UniProt P45452)
- protocol-text: MMP-13 inhibition (thiopeptide or fluorescent peptide substrate)
- Format: biochemical
- condition-details: read-out: MMP-13 IC50
observable: IC50 (nM)

[[record]]
compound = "CC#CCOc1ccc(S(=O)(=O)N[C@@H](C(=O)NO)C2CCC(O)CC2)cc1 (some centres unmarked) [Example 129]"
observable = "IC50"
quantity_unit = "nM"
endpoint_result = 28


[P] CC#CCOc1ccc(S(=O)(=O)N2CCCSC[C@@H]2C(=O)NO)cc1 [Example 174]
[Q] CC#CCOc1ccc(S(=O)(=O)N(C)C(C(=O)NO)c2ccc(OCCN3CCOCC3)cc2)cc1 (centres unmarked) [Example 179]
QUERY: Between these two entries, P and Q , state which has the higher IC50. In your reply, give the label of the chosen option.
RESULT: P
(P: 36 nM, Q: 11 nM)

[P] CC#CCOc1ccc(S(=O)(=O)N(C)C(C(=O)NO)C(C)(C)SCCN2CCN(C)CC2)cc1 (centres unmarked) [Example 141]
[Q] CC#CCOc1ccc(S(=O)(=O)N(C)C(C(=O)NO)c2ccc(OCCN3CCNCC3)cc2)cc1 (centres unmarked) [Example 186]
QUERY: // compare measured IC50 between P and Q ; output the lower one Reply briefly: the label of your chosen item.
RESULT: P
(P: 7.6 nM, Q: 21 nM)

* * *

- measurement-target: MMP-1 (Homo sapiens)
- Sequence (P03956 100-469): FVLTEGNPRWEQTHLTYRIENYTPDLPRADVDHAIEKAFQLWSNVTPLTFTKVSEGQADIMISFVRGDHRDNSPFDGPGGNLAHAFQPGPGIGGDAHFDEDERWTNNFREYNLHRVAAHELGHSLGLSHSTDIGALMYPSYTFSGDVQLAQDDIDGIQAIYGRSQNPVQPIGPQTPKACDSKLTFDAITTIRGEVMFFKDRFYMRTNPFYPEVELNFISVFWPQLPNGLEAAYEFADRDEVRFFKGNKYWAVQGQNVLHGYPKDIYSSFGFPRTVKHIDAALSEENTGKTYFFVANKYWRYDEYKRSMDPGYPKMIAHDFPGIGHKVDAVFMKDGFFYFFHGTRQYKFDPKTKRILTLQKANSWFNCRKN
- protocol-text: MMP-1 inhibition (thiopeptide or fluorescent peptide substrate)
- Format: biochemical
- condition-details: Table 9; read-out: MMP-1 IC50
observable: IC50 (nM)

Use these answered entries as a reference point.
[[record]]
molecule = "CC#CCOc1ccc(S(=O)(=O)N2CCSC3(CCCCC3)C2C(=O)NO)cc1 (stereo not shown)"
measurement_target = "MMP-1 (Homo sapiens)"
observable = "IC50"
endpoint_result = 62

[[record]]
molecule = "CC#CCOc1ccc(S(=O)(=O)N2CC[S+]([O-])C(C)(C)C2C(=O)NO)cc1 (single isomer, unassigned) [Example 256]"
measurement_target = "MMP-1 (Homo sapiens)"
observable = "IC50"
endpoint_result = 43


[A] CC#CCOc1ccc(S(=O)(=O)N2CCS(=O)(=O)C(C)(C)[C@@H]2C(=O)NO)cc1
[B] CC#CCOc1ccc(S(=O)(=O)N2CCSC3(CCN(Cc4ccccc4)CC3)C2C(=O)NO)cc1 (stereo not shown)
QUERY: I'd appreciate it if you could identify which of A and B has the greater IC50. Lab note: record the label of whichever item you select.
RESULT: A
